Where do these numbers come from? They come from patent US12161723B2.

We begin with a simple list: items and their reported amount of cannabinoids dissolved in ethanol, Smoke.
condition_context: 3 g high THC strain; 200 ml ethanol concentrated to about 3 ml
parameter: amount of cannabinoids dissolved in ethanol, Smoke (micrograms/ml)

{"compound": "CCCCCc1cc(O)c(C/C=C(\\C)CCC=C(C)C)c(O)c1", "value_reported": 292.063}
{"compound": "C=C(C)[C@@H]1CCC(C)=C[C@H]1c1c(O)cc(CCCCC)cc1O [CBD, cannabidiol, reference compound]", "value_reported": 0}
{"compound": "CCCCCc1cc(O)c(C/C=C(\\C)CCC=C(C)C)c(O)c1C(=O)O", "value_reported": 23.088}
{"compound": "CCCCCc1cc(O)c2c(c1)OC(C)(CCC=C(C)C)C=C2 (stereo not drawn)", "value_reported": 90.873}
{"compound": "CCCCCc1cc(O)c2c(c1)OC(C)(C)[C@@H]1CCC(C)=C[C@@H]21 [THC, tetrahydrocannabinol, reference compound]", "value_reported": 6195.223}
{"compound": "CCCCCc1cc(O)c2c(c1)OC(C)(C)[C@@H]1CC=C(C)C[C@@H]21", "value_reported": 0}
{"compound": "CCCCCc1cc(O)c2c(c1)OC(C)(C)c1ccc(C)cc1-2", "value_reported": 276.856}
{"compound": "CCCCCc1cc2c(c(O)c1C(=O)O)[C@@H]1C=C(C)CC[C@H]1C(C)(C)O2 [THCA, tetrahydrocannabinoic acid]", "value_reported": 83.765}
{"compound": "C=C(C)[C@@H]1CCC(C)=C[C@H]1c1c(O)cc(CCCCC)c(C(=O)O)c1O", "value_reported": 0}

----------
tested_target: albumin (BSA) (Bos taurus)
Sequence (P02769 25-607): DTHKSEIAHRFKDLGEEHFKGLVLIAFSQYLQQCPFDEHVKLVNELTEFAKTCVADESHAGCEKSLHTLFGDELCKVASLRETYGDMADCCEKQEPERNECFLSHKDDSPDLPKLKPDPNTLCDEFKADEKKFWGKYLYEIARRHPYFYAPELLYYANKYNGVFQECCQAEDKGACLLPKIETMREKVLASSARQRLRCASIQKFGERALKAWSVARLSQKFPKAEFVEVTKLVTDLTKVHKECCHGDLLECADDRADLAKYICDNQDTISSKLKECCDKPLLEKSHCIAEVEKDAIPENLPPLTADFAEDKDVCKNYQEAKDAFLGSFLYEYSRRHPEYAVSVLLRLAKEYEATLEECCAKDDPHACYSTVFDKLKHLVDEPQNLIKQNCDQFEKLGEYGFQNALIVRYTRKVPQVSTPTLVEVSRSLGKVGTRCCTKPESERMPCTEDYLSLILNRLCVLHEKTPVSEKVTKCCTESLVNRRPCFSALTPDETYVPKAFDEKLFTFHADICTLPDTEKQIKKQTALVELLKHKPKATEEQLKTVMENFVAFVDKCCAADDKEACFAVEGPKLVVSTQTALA
method: Ethanolic cannabinoid solution mixed with aqueous albumin, protein-bound cannabinoid quantified (Example 2b)
Format: binding, bovine
condition_context: 100 microliters ethanolic solution + 500 microliters 5 mg/ml BSA, 30° C., 12 hours, non-adsorbed cannabinoids separated
Procedure: 100 microliters of ethanolic cannabinoid solution from cannabis vapor and cannabis smoke were each mixed with 500 microliters of aqueous albumin solution that had been prepared at a concentration of 5 mg albumin (BSA)/ml. The aqueous albumin solution combined with the ethanolic cannabinoid solution was incubated at 30° C. for 12 hours in open tubes. […] Concentrated protein-bound cannabinoid was dried and quantified as described below.
parameter: protein-bound cannabinoid quantified, Smoke

{"compound": "CCCCCc1cc2c(c(O)c1C(=O)O)[C@@H]1C=C(C)CC[C@H]1C(C)(C)O2 [THCA, tetrahydrocannabinoic acid]", "value_reported": 2.16}
{"compound": "CCCCCc1cc(O)c2c(c1)OC(C)(C)[C@@H]1CC=C(C)C[C@@H]21", "value_reported": 0}
{"compound": "CCCCCc1cc(O)c(C/C=C(\\C)CCC=C(C)C)c(O)c1", "value_reported": 5.9}
{"compound": "CCCCCc1cc(O)c2c(c1)OC(C)(C)c1ccc(C)cc1-2", "value_reported": 6.5}
{"compound": "C=C(C)[C@@H]1CCC(C)=C[C@H]1c1c(O)cc(CCCCC)c(C(=O)O)c1O", "value_reported": 0}

----------
condition_context: 3 g high THC strain; 200 ml ethanol concentrated to about 3 ml
Param threshold (20 micrograms/ml) applies to amount of cannabinoids dissolved in ethanol, Vapor; output true (1) when value >= threshold, false (0) when value < threshold.

{"molecule": "CCCCCc1cc(O)c(C/C=C(\\C)CCC=C(C)C)c(O)c1C(=O)O", "answer_label": "true (1)"}
{"molecule": "CCCCCc1cc(O)c2c(c1)OC(C)(CCC=C(C)C)C=C2 (stereo not drawn)", "answer_label": "true (1)"}
{"molecule": "CCCCCc1cc(O)c2c(c1)OC(C)(C)[C@@H]1CCC(C)=C[C@@H]21 [THC, tetrahydrocannabinol, reference compound]", "answer_label": "true (1)"}
{"molecule": "CCCCCc1cc(O)c2c(c1)OC(C)(C)c1ccc(C)cc1-2", "answer_label": "true (1)"}
{"molecule": "C=C(C)[C@@H]1CCC(C)=C[C@H]1c1c(O)cc(CCCCC)cc1O [CBD, cannabidiol, reference compound]", "answer_label": "false (0)"}
{"molecule": "CCCCCc1cc(O)c2c(c1)OC(C)(C)[C@@H]1CC=C(C)C[C@@H]21", "answer_label": "false (0)"}
{"molecule": "C=C(C)[C@@H]1CCC(C)=C[C@H]1c1c(O)cc(CCCCC)c(C(=O)O)c1O", "answer_label": "false (0)"}
{"molecule": "CCCCCc1cc2c(c(O)c1C(=O)O)[C@@H]1C=C(C)CC[C@H]1C(C)(C)O2 [THCA, tetrahydrocannabinoic acid]", "answer_label": "true (1)"}
{"molecule": "CCCCCc1cc(O)c(C/C=C(\\C)CCC=C(C)C)c(O)c1", "answer_label": "true (1)"}
